system: ACHN; experiment: Growth inhibition of human ACHN cells incubated for 48 hrs by sulforhodamine B assay; type: functional, cell-based; conditions: read-out: GI50
Measure name: GI50 (nM)
Answer with a number only, understood to be in nM.

Reported GI50, molecule COc1cc(Cl)cc(-c2nn(-c3cccc(NC(=O)Nc4ccc(Cl)c(Cl)c4)c3)cc2-c2ccncc2)c1 : ____
3230

Others:
Reported GI50, molecule COc1cc(Cl)cc(-c2nn(-c3cccc(NC(=O)Nc4cc(C(F)(F)F)cc(C(F)(F)F)c4)c3)cc2-c2ccncc2)c1 : ____
397

Reported GI50, molecule COc1cc(Cl)cc(-c2nn(-c3cccc(NC(=O)c4ccc(N5CCOCC5)c(C(F)(F)F)c4)c3)cc2-c2ccncc2)c1 : ____
7310

Reported GI50, molecule O=C(Nc1cccc(-n2cc(-c3ccncc3)c(-c3cc(O)cc(Cl)c3)n2)c1)Nc1ccc(Cl)c(Cl)c1 : ____
2210
